// provenance: patent US11530193B2

Biological target: SYK (Homo sapiens (Human), UniProt P43405)
Experiment: Tm-Shift assay (thermal melting, SYPRO Orange);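 note: recombinant His-tagged protein made in Sf9 insect cells by baculovirus, in HEPES NaCl buffer, heated stepwise with fluorescence recorded at every temperature step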
Type: binding
Conditions: compound 10 μM, protein 2 μM; ΔTm obs vs protein without ligand; triplicate
Experimental endpoint: SYK Tm-Shift (°C)

# example entries with known answers
CC1(C)COCCN1C(=O)c1cc(Nc2nc(N3CCC[C@H](N)C3)ncc2C(N)=O)cc(C(F)(F)F)c1 ... 2.1
COC(=O)c1cc(Nc2nc(N3CCC[C@H](N)C3)ncc2C(N)=O)cc(C(C)(C)C#N)c1 ... 4.6

P: Cc1ccccc1-c1cccc(Nc2nc(N3CCC[C@H](N)C3)ncc2C(N)=O)c1
Q: CC(C)(C#N)c1cc(Nc2nc(N3CCC[C@H](N)C3)ncc2C(N)=O)cc(C(=O)N2CCCC2)c1
### Prompt Quick one: lower SYK Tm-Shift, P or Q ? Which one? Tell me its label.
### Response Q
(Q: 0.7 °C, P: 6.5 °C)
